System: Huh-7.5 Rluc-replicon viability, CellTiter-Glo ATP, 72 h
Assay method text: Huh-7.5 replicon viability loss – cell-based, luminescence, cytotoxicity control for HCV NS3 helicase inhibitor project, late-stage follow-up (AID 623961)
Test context: at 10 µM
Activity calls are given as the source filed them.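 How the source made its calls: active means mean cell viability below 80%; inactive means the rest.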
Outcome codes: active, inactive

| Smiles entry | Label class |
| --- | --- |
| Cc1ccc2nc(-c3ccc4nc(-c5ccc(NC(=O)c6c(F)cccc6C(F)(F)F)cc5)sc4c3)sc2c1S(=O)(=O)O | inactive |
| Cc1ccc2nc(-c3ccc(NC(=O)c4ccc(NC(=O)OCC5c6ccccc6-c6ccccc65)cc4)cc3)sc2c1S(=O)(=O)O | inactive |
| COc1ccc2sc(NC(=O)c3ccc4ncsc4c3)nc2c1 | active |

###

Tested on: Huh-7.5 Rluc-replicon viability, CellTiter-Glo ATP, 72 h
Assay method text: Huh-7.5 replicon viability loss – cell-based, luminescence, cytotoxicity control for HCV NS3 helicase inhibitor project, late-stage follow-up (AID 623961)
Test context: at 10 µM; active compounds read low

| Compound | U | viability |
| --- | --- | --- |
| Cc1ccc2nc(-c3ccc4nc(-c5ccc(NC(=O)c6ccc(N)cc6)cc5)sc4c3)sc2c1S(=O)(=O)O | % | 93 |
| Cc1ccc2nc(-c3ccc(NC(=O)c4ccc(NC(=O)c5ccccc5)cc4)cc3)sc2c1S(=O)(=O)O | % | 115 |
| Cc1ccc2nc(-c3ccc4nc(-c5ccc(NC(=O)c6ccc7nc(-c8ccc(N)cc8)sc7c6)cc5)sc4c3)sc2c1S(=O)(=O)O | % | 85 |
| Cc1cc2sc(-c3ccc(N)cc3)nc2cc1S(=O)(=O)O | % | 88 |
| Cc1cc(C(O)(c2ccc(Nc3ccccc3)cc2)c2ccc(Nc3ccc(S(=O)(=O)O)cc3)cc2)ccc1N (stereo not given) | % | 73 |
